Attribution: the nanobody polyreactivity screen of Harvey et al. (2022)

experiment: yeast display, Sf9 membrane polyspecificity reagent, FACS + sequencing; frameworks hold sequencing errors
MEASURED_QUANTITY: polyreactivity (PSR sort gate)

QVQLVESGGALVQAGGSLRLSCAASGSTFDDNAMGWYRQAPGKERELVASITYRGGSTYYADSVKGRFTISRDNAKNTVYLQMNSLKPEDTAVYYCAKGHYFKYDYWGQGTQVTVSS :: low polyreactivity
QVQLVESGGGLVQAGGSLRLSCAASGIIFGGNVMGWYRQAPGKERELVAAISGTGDNTYYADSVKGRFTISRDNAKNTVYLQMNSLKPEDTAVYYCNTVYYGWPRRYGYWGQGTQVTVSS :: high polyreactivity
HVQLVDSGGGLVQAGGSLRLTCAASGNIFVPYAMGWYRQAPGKERELVAAINGGGSTNYADSLKGRFTISRDNAKNTVYLQMNSLKPEDTAVYYCAAVWYFLSLWYDYWGQGTQVTVSS :: high polyreactivity
QVQLVESGGGLVQAGGSLRLSCSASGSTSGKYAMGWYRQAPGKESELVAGITKGGGGTYYADSVKGRFTISRDNAKNTVYLQMNSLKPEDTAVYYCAKYYGSGYYIYDYWGQGTQVTVSS :: low polyreactivity

[Q] Quickly give me recorded polyreactivity (PSR sort gate) for QVQLVESGGGLVQAGGSLRLSCAASGRIFRKYAMGWSRQAPGKERELVAAISVGGGSTRYADSVKGRFTISRDNAKNTVYLQMNSLKDEDTAVYYCAADWAYYVASYLYYTFDYWGQGTQVTVSS
[A] low polyreactivity

----------
test: yeast display, Sf9 membrane polyspecificity reagent, FACS + sequencing; frameworks hold sequencing errors
MEASURED_QUANTITY: polyreactivity (PSR sort gate)

The cases that follow already have their polyreactivity (PSR sort gate) on record.
QVQLVESGGGLVQAGGSLRLSCAASGFIFNYNAMGWYRQAPGKERELVAAISGTGVRTYYADSVKGRFTISRDNAKNTVYLQMNRLKPEDTAVYYCNAYYGYIPVSGYRNDYWGQGTQVTVSS :: low polyreactivity
QVQLVESGGGLVQAGGSLRLSCAASGSTFGYYAMGWYRQAPGKERELVAAITSNDGSTNYADSVKGRFTISRDNAKKTVYLQMNSLKPEDTAVYYCNARSFVAVISSFDYWGQGTQVTVSS :: low polyreactivity
QVQLVESRGGLVQAGGSLRLSCAASGLNFSYYAMGWYRQAPGKERELVAAIDWNSGSTYYADSVKGRFTISRDNAKNTVYLQMNSLKPEDTAVYYCAAYGSFWYARFGYWGQGTQVTVSS :: low polyreactivity
QVQLVESGGGLVQAGASLRLSCAASGFTLYSYAMGWYRQAPGKERELDASISTGGSTYYADSVKGRFTISRDNAKNTVYLQMNSLKPVDTAVYYSAVDGWYYTSWSFYRRYEYWGQGTQVSVSS :: high polyreactivity
QVQLVESGGGLVQAGGSLRLSCAASGRTFGKNAMGWYRQAPGKEREFVAAITSRGGSTYYADSVKGRFTISRDNAKNTVYLQMNSLKPEDTAVYYCNREYNRPSQRTEHYYWGQGTQVTVSS :: low polyreactivity

[Q] Quickly give me recorded polyreactivity (PSR sort gate) for QVQLVESGGGLVQAGGSLRLSCAAYGRIFNDYTMGWYRQAPGKERELVADITNRDTSTSYADSVKGRFIISRDNANNTVYLQMYILKPDDTAVYYCNAQQVIVVYRPGDYWGQGTQVTVSS
[A] low polyreactivity

[Q] Quickly give me recorded polyreactivity (PSR sort gate) for QVQLEESGGGLVQAGGSLRLSCAASGRTINGNTMGWYRQAPGKERELVAVIDWSGGSTYYADSVKGRFTISRDNAKNTVYLQMNSLKPEDTAVYYWNAETRDPILYGEYDYWGQGTQVTVSS
[A] low polyreactivity

[Q] Quickly give me recorded polyreactivity (PSR sort gate) for QVQLGESGGGLVQAGGSLRLSCAACGSIFKPYAMGWYRQAPGTERELVAAISGIGGSTYYADSVKGRFTISRDTAKNTVYLQMNSLTPEDTAVYYCAADTFFKIFSEYNYWGQGTQVTLSS
[A] high polyreactivity

[Q] Quickly give me recorded polyreactivity (PSR sort gate) for QVQLVESGAGLVQAGGSLRLSCAGSGLTFRGNAMGCYRQAPGKERELVAAISWSDDTTDYADSVKGRFTISRDNAKNTVYLQMNSLKPEDTAVYYCAARRRIYRSMGFWGQGSQVTVSS
[A] low polyreactivity

[Q] Quickly give me recorded polyreactivity (PSR sort gate) for QVQLVESGGGLVHAGGSLRLSCAACGNIFKYYTMGWYREAPGKERELVDAITSGGRTNYADSVKGRFTISRDNAKNTVYLKMNSLKPEDTAVYYCAAYDVIYSQGFDYWGQGTQVTVSS
[A] low polyreactivity

[Q] Quickly give me recorded polyreactivity (PSR sort gate) for QVHHVESGGGLVQAGGSLRLSCAASGRTFRYKAMGWYRQAPGKETELVARISRTGGRTYYADSVKGRFTISRDNAKTTVYLQMNSLKPEDTAVYYCNARKRYYSTRYNYWGQGTQVTVSS
[A] high polyreactivity

----------
assay: yeast display, Sf9 membrane polyspecificity reagent, FACS + sequencing; frameworks hold sequencing errors
MEASURED_QUANTITY: polyreactivity (PSR sort gate)

The cases that follow already have their polyreactivity (PSR sort gate) on record.
QVQLVESGGGLVQAGGSLRLSCAASGNIFGDYAMGWYRQAPGKERELVAAITQTGGNTYYADSVKGRFTISRDNAKNTVYLQMNSLKPEDTAVYYCNKVSVVYSRSKGFYYTYLKYEYWGQGTQVTVSS :: low polyreactivity
QVQLVESGGGLVQAGGSLRLSCAASGRIFRPYAMGWYRQAPGKEREFVAAITQSGGITSYADSVKGRFTISRDNAKNTVYLQMNRLKPEDTAVYFCATTSRYTRSHYDWYDYWGQGTQVTVSS :: low polyreactivity
QLQLVESGGGLVQAGGSLRLSCAASGSTFALYAMGWYRQAPGKERELVAAITSDGSTKYADSVKGRFTISRDNAKNTVYLQMNSLKPEDTAVYYCNTEYYYPGIPYDYWGQGTQVTVSS :: high polyreactivity
QVQLVESGGGLVQAGGSLRLSCAASGRIISRYAMGWYRQAPGKERELVAAISRRGGSTYYADSVKGRFTISRDNAKNTVYLQLNSLKPEDTAVYYCNADTGNRGYDYWGQGTQVTVSS :: high polyreactivity
QVQLVESGGGLVQAGGSLRLSCAASGRTFEGYAMGWYRQAPGKERELVAAISNSGGSTYYADSVKGRFTIARDNAKNTVYLQMNSLKPEDTAVYYCAALSRIPRYGYWGQGTQVTVSA :: high polyreactivity

Now for the sequence whose polyreactivity (PSR sort gate) we want.
[Q] Quickly give me recorded polyreactivity (PSR sort gate) for QVQLVESGGRLVQAGGSLRLSCAASGSTFGVNTKGWYRQAPGKEREFVAAITYGGGGTYYADSVKGRFTISRDNAKNTVYLQMNSLKPEDTAVYYCAARRAPKYYWGQGTQVTVSS
[A] high polyreactivity

----------
assay: yeast display, Sf9 membrane polyspecificity reagent, FACS + sequencing; frameworks hold sequencing errors
MEASURED_QUANTITY: polyreactivity (PSR sort gate)

QGQLVESGGALVQAGGSLRLSCAASGRILRYYAMGWNRQAPGKERELVAVITSSDGSTYYADSVKGRFTISRDNAKNTVYLQQNSLKPEDTAVDYCAAAPLWRVASWWDPYRRYDYWGQGTQVTVSS :: low polyreactivity
QVQLVESGGGLVQAGGSLRLSCAASGRIIKFYAMGWYRQAPGKERELVARISRSGGRTYYADSVKGRFTISRDNAKITVYLQMNSLKPEDTAVYYCAADTQSVATYDYWGQGTQVTVSS :: low polyreactivity
QVQLVESGGGLVQAGGSLRLSCAASGITFYYYGMGWYRQAPGKERELVAAITTGGNTNYADSVKGRFTISRDNAKNTVYLQMNSLKPEDTAVYYCAAEYRIPYFFTYGYWGQGTQVTVSS :: high polyreactivity
QVQLVESGGGLVQAGGSLRLSCAASGRIGKYAMGWYRQAPGKERELVATISSTGTTNYADSVKGRFTISRDNAKNTVYLQMNSLKPEDTAVYYCAGRWEYVGYRRRYYRFDYWGQGTQVTVSS :: high polyreactivity
QVQLVESGGGLVQAGGSLRLSCAASGSIIVYYGMGWYRQAPGKERELVAAISSGGSTHYADSVKGRFTISRDNAKNSVYLQMNSVKPEDTAVYYCAADRFFWLRSYPRYYYWGQGTQVTVSS :: low polyreactivity
QVQLVESGGGLVQAGGSLRLSCAASGGIFYLYAMGWYRQAPGKEREFVAAISSSGGSTNYADSVKGRFTISRDNAKNTVYLQMNSLKPEDTAVYYCAARWLPFLDLGKTYEYWGQGTQVTVSS :: high polyreactivity

[Q] Quickly give me recorded polyreactivity (PSR sort gate) for QVQLVESGGGLVQAGGSLRLSCAASGIIFDDYAMGWYRQAPGKERELVAAINSNGGTTYYADSVKGRFTISRDNAKNTVYLHMNSLKPEDTAVYYCAKAYPGTYREYDYWGQGTQVTVSS
[A] high polyreactivity

[Q] Quickly give me recorded polyreactivity (PSR sort gate) for QVQLVESGGGLVQAGGSLRLSCAASGSTFSLYVMGWYRQAPGKEREFVATINWRTVSTYYADSVKGRFTISRDNAKKTVYLQMNSLIPEDTAVYYCNAVSYPPDGTYDYWGQGTQVTVSS
[A] low polyreactivity
